The values you see were collected from patent US20240246941A1.

- assayed-system: interaction between GST-MAGEA11 MHD and FAM-PCF11_4 peptide (MAGE-A11:PCF11) (Homo sapiens (Human))
- Sequence (P43364 218-429): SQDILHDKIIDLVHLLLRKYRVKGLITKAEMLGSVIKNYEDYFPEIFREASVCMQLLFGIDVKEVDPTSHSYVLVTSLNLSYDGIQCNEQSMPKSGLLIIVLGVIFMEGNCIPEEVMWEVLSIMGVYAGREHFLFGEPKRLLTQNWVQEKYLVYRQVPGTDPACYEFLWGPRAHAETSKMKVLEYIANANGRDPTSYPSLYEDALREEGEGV
- experiment-summary: TR-FRET dose response competition assay for disruption of MAGE-A11:PCF11 binding
- measurement-parameters: Dose response TR-FRET screening of nine scaffold groups against MAGE-A11:PCF11; read-out: consensus IC50
measured-quantity: IC50 (µM)
Answer in µM, number only, no unit symbol.

Consider the following illustrative entries.
CC(=O)N(C)C1=C(Cl)C(=O)c2ccccc2C1=O	69.9
CCCn1c(-c2ccc(C(C)(C)C)cc2)nc2c1c(=O)[nH]c(=O)n2Cc1ccccc1	69.9
Oc1ccccc1CNCCCNc1ccnc2cc(Cl)ccc12	69.9
O=C1C(Cl)=C(Nc2cccc(Br)c2)C(=O)c2ccccc21	69.9
CCC(C)N1C(=O)c2ccccc2NC1c1cccc(OC)c1O (stereo not drawn)	69.9
O=S(=O)(c1ccccc1)c1nc(-c2ccc(Br)cc2)oc1N1CCOCC1	8.63

Query string: Could you please provide reported IC50 for "CCC(CC)c1ccc2c(NCCCNCc3cc(F)ccc3OC)ccnc2c1" ? Thanks!
Result string: 43

Query string: Identify the reported IC50 for the following entry. "Clc1ccc2c(NCCCNCc3ccccc3)ccnc2c1"
Result string: 69.9

Query string: Assign IC50 to the following record: "CCCCn1c(=O)[nH]c(=O)c2c1nc(-c1ccc(OCC(C)C)c(OCC)c1)n2CC"
Result string: 69.9
